Molecular target: human CH24H (Homo sapiens, UniProt Q9Y6A2)
Construct: Using Full-Length Mammalian Gene Collection No. 4819975 (Invitrogen) as a template; made in house; host or cells: FreeStyle 293-F cells, transient transfection with pcDNA3.1(+)/hCH24H; crude lysate supernatant
Sequence (Q9Y6A2 whole entry): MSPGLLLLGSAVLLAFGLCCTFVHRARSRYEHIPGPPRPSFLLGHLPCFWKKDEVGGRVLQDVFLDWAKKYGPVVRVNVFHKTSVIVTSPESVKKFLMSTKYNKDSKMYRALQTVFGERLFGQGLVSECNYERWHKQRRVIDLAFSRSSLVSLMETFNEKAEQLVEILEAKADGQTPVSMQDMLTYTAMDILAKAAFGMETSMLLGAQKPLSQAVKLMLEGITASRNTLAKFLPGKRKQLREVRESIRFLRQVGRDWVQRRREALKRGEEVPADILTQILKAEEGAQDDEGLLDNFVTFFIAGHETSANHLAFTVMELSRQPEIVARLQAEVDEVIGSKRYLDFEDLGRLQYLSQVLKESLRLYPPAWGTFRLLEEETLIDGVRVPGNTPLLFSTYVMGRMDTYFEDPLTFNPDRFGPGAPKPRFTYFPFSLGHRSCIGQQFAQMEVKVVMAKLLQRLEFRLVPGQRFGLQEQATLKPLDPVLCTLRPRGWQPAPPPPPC
Experiment: Measurement of CH24H inhibitory activity (24-HC produced from [14C] cholesterol by human CH24H lysate)
Format: biochemical
Details: test compound 1 μM, [14C] cholesterol 15 μM, 37° C., 5 hr, read-out: Inhibitory Rate in 1 μM (%)
compounds and their reported inhibition at 1 µM

CCN(CC)C(=O)CN1CCC(Oc2cccnc2-c2ccncc2)CC1 [Example 49]; 85%
O=C(CN1CCC(Oc2cccnc2-c2ccncc2)CC1)N1CCOCC1 [Example 38]; 84%

Consider the record given below.
Query string: What value of inhibition at 1 µM has been reported for the following compound? CN(C)C(=O)CN1CCC(Oc2ccccc2-c2ccncc2)CC1 [Example 20]
Result string: 83%
